# Test system: Plasmodium falciparum
# protocolDescription: ST_JUDE: Cytotoxicity against Plasmodium falciparum K1
# Assay type: functional, organism-based
reportedProperty: log10 of EC50 (log10 of the value in nM)
Annotation: log10 of EC50, nM basis.

smi: CC(C)c1ccccc1Oc1c(C(F)(F)F)oc2c(CN3CCN(C)CC3)c(O)ccc2c1=O
reportedProperty: log10 of EC50
resultValue: 2.20
//
smi: CCCCCOc1ccc(N(C(C)=O)C2=C(N3CCOCC3)C(=O)c3ccccc3C2=O)cc1
reportedProperty: log10 of EC50
resultValue: 1.89
//
smi: O=[N+]([O-])c1ccc2c(c1)c1ccccc1n2Cc1ccccc1O
reportedProperty: log10 of EC50
resultValue: 3.03
//
smi: CC(C)(C)C(=O)N1CCN(c2ccc([N+](=O)[O-])c(NC3CC3)c2)CC1
reportedProperty: log10 of EC50
resultValue: 3.03

Items follow; give log10 of EC50 for each.
1. COc1ccccc1Cn1ccnc1SCC(=O)Nc1cc(C(F)(F)F)ccc1Cl
2. CCCN(C(=O)C(=O)Nc1ccc2nc3n(c(=O)c2c1)CCCCC3)c1ccc(OCC)cc1
3. CN(C(=O)c1cc2c(s1)-c1ccccc1S(=O)(=O)C2)c1cccc(C(F)(F)F)c1
4. CCN(C(C)=O)C1=C(N2CCOCC2)C(=O)c2ccccc2C1=O
5. CC(C)(C)c1ccc(S(=O)(=O)NC2=C/C(=N\c3ccc(O)cc3)C(=O)c3ccccc32)cc1

Found:
[2.40, 2.51, 2.55, 2.64, 2.51]

###

# protocolDescription: ST_JUDE: Cytotoxicity using luciferase to measure ATP as an indicator of the viability of human epithelial hepatocellular carcinoma cells (HepG2)
# Format: toxicity, cell-based
pEC50: −log10 of the molar value.
reportedProperty: pEC50

Example entries and their recorded answers appear below.
compound: C[n+]1ccccc1/C=C/c1ccc([N+](=O)[O-])cc1
reportedProperty: pEC50
resultValue: < 4.47
--
compound: CCCO/C(O)=C1\C(C)=NC2=C(C(=O)CC(c3ccc(OC)cc3)C2)C1c1ccccc1F (stereo unspecified)
reportedProperty: pEC50
resultValue: < 4.35
--
compound: CCCCCCCCCC[n+]1ccccc1
reportedProperty: pEC50
resultValue: < 4.31
--
compound: Cc1ccc2c(c1)C=C/C(=C\c1sc3ccccc3[n+]1C)N2C
reportedProperty: pEC50
resultValue: 5.65

Items follow; give pEC50 for each.
1. COc1ccccc1Cn1ccnc1SCC(=O)Nc1cc(C(F)(F)F)ccc1Cl
2. CCCCOc1ccc(N(C(C)=O)C2=C(N3CCCCC3)C(=O)c3ccccc3C2=O)cc1
3. CCOC(=O)c1cccc(NC(=O)CC2C(=O)N(c3ccc(F)cc3)C(=O)N2CCC(C)C)c1 (stereo unspecified)
4. Cc1ccc(NC(=O)C2c3ccccc3C(=O)N(CC(C)C)C2c2cccs2)cc1C (stereo unspecified)
5. Oc1ccc(Br)cc1CN1CCN(Cc2cccc(F)c2)CC1
6. c1ccc(CCNc2ccnc3cc4ccccc4cc23)cc1
7. Cc1ccc2c(c1)S/C(=C\c1sc3ccccc3[n+]1C)N2CCO

Found:
1. < 4.41
2. 4.86
3. < 4.36
4. < 4.39
5. < 4.50
6. 5.88
7. < 4.63

###

Record form. Attribute: pEC50. Fill in for each entry.
# System: Plasmodium falciparum
# protocolDescription: ST_JUDE: Plasmodium falciparum K1 EC50 (uM) as measured by SYBR green dye
# Format: functional, organism-based
Numbers only, as −log10 of the molar value.

Example entries and their recorded answers appear below.
compound: COc1ccc(CN2CCCC(N3CCN(c4ccc(F)cc4)CC3)C2)c(O)c1 (configuration not stated)
targetSystem: Plasmodium falciparum
pEC50: 5.98
//
compound: O=C(CCCCCN1C(=O)c2cccc3cccc(c23)C1=O)NO [SCRIPTAID]
targetSystem: Plasmodium falciparum
pEC50: 5.65
//
compound: COc1ccc(CCNC(=S)Nc2ccccc2Cl)cc1Br
targetSystem: Plasmodium falciparum
pEC50: 5.79
//
compound: CCO/C(O)=C1\C(C)=NC2=C(C(=O)CC(c3ccc(Cl)cc3)C2)C1c1ccc(O)c(OCC)c1 (configuration not stated)
targetSystem: Plasmodium falciparum
pEC50: 5.83
//
compound: CCCN1CC=C2C(C#N)=C(N)C(C#N)(C#N)C(c3ccccc3C(F)(F)F)C2C1 (configuration not stated)
targetSystem: Plasmodium falciparum
pEC50: 6.32
//
compound: CCCc1cc(O)nc(Nc2ccc(Cl)c(C(F)(F)F)c2)n1
targetSystem: Plasmodium falciparum
pEC50: 5.55
//
compound: COc1cc(C(NC(=O)CCl)NC(=O)CCl)ccc1OCC(C)C
targetSystem: Plasmodium falciparum
pEC50: 5.44
//
compound: Oc1c(C(Nc2ccccn2)c2cccc(Oc3ccccc3)c2)ccc2cccnc12 (configuration not stated)
targetSystem: Plasmodium falciparum
pEC50: 5.56
//
compound: Cc1cc(C)c2nc(C)cc(Nc3cccc(Cl)c3)c2c1
targetSystem: Plasmodium falciparum
pEC50: 5.42

--- query ---
Lookup: Quick one: pEC50 for Cc1cccnc1Nc1nc(-c2ccccn2)cs1 ?
Found: 5.88

###

# protocolDescription: ST_JUDE: Cytotoxicity using luciferase to measure ATP as an indicator of the viability of human epithelial embryonic kidney cells (HEK293)
# Type: toxicity, cell-based
pEC50: −log10 of the molar value.
reportedProperty: pEC50

compound: CCc1ccc(S(=O)(=O)NC2=C/C(=N\c3ccccc3)C(=O)c3ccccc32)cc1
reportedProperty: pEC50
resultValue: 5.28
//
compound: CC(C)(C)c1cc(C2C(C#N)=C(N)OC3=C2C(=O)CCC3)cc(C(C)(C)C)c1O (stereo unspecified)
reportedProperty: pEC50
resultValue: < 4.44
//
compound: CCOc1ccc2nc(C)cc(Nc3ccc(Cl)cc3)c2c1
reportedProperty: pEC50
resultValue: 4.67

Items follow; give pEC50 for each.
1. Cc1ccc2c(c1)N(C)/C(=C/c1sc3ccccc3[n+]1CCO)S2
2. C#CC[n+]1ccn2c(C)ccc2c1CC
3. C/C=C/c1n(C)c2ccccc2[n+]1C
4. CC(C)NCC(O)Cn1c2ccc(Cl)cc2c2cc(Cl)ccc21 (stereo unspecified)
5. O=[N+]([O-])c1cc(CN2CCN(c3cccc(C(F)(F)F)c3)CC2)c2cccnc2c1O

Found:
1. < 4.71
2. < 4.30
3. < 4.40
4. 4.75
5. < 4.50

Items follow; give pEC50 for each.
1. CCOc1ccc(/C=C2\Oc3c(ccc(O)c3CN3CCCCC3)C2=O)cc1
2. CC(=O)c1cccc(NC(=O)C2c3ccccc3C(=O)N(CC(C)C)C2c2cccs2)c1 (stereo unspecified)
3. CCN(C(C)=O)C1=C(N2CCOCC2)C(=O)c2ccccc2C1=O

Found:
1. < 4.33
2. < 4.36
3. < 4.49

###

# Test system: Plasmodium falciparum
# protocolDescription: ST_JUDE: Plasmodium falciparum 3D7 EC50 (uM) as measured by SYBR green dye
# Assay type: functional, organism-based
reportedProperty: EC50 (µM)
Give bare numbers, in µM.

molecule: COc1cccc(C2=C(C(C)=O)Sc3nnc(C)n3N2C(C)=O)c1
targetSystem: Plasmodium falciparum
EC50 (µM): 6.59

molecule: CCc1cc(-c2[nH]nc(C)c2Oc2ccc(Cl)cc2)c(O)cc1OC
targetSystem: Plasmodium falciparum
EC50 (µM): 4.85

molecule: CCCO/C(O)=C1\C(C)=NC2=C(C(=O)CC(c3ccc(OC)c(OC)c3)C2)C1c1ccccc1Cl (configuration not stated)
targetSystem: Plasmodium falciparum
EC50 (µM): 0.0247

Items follow; give EC50 for each.
1. CCCCOc1ccc(NC2=C(N3CCCCC3)C(=O)c3ccccc3C2=O)cc1
2. CC(=O)N(C1=C(N2CCCC2)C(=O)c2ccccc2C1=O)C1CCCCC1
3. CCOC(=O)c1cnc2ccc(OCC)cc2c1NCCCN1CCOCC1
4. CCCCCCCCCC[n+]1ccccc1
5. O=C(c1cccc(Cl)c1)N1CCN(c2ccc([N+](=O)[O-])c(NC3CC3)c2)CC1
6. CC(=O)N(C1=C(N(C)C)C(=O)c2ccccc2C1=O)c1ccc(F)cc1
7. COc1ccc(Nc2cc(C)nc(Nc3ccc(NS(=O)(=O)c4cccc(C)c4)cc3)n2)cc1

Found:
1: 0.0145; 2: 0.28; 3: 1.08; 4: 1.31; 5: 3.76; 6: 0.0685; 7: 1.99

###

# Tested on: Plasmodium falciparum
# protocolDescription: ST_JUDE: Cytotoxicity against Plasmodium falciparum SB-A6
# Format: functional, organism-based
Output yes for records whose EC50 is lower than 1000 nM, no for records at or above 1000 nM.

molecule: CCOc1cc(C2CC(=O)NC3=C2C(=O)CC(c2cc(OC)ccc2OC)C3)ccc1O (centres undefined)
assignedCategory: no
//
molecule: CCCO/C(O)=C1\C(C)=NC2=C(C(=O)CC(c3ccc(OC)cc3)C2)C1c1ccccc1F (centres undefined)
assignedCategory: yes
//
molecule: Cc1ccc2c(c1)N(C)/C(=C/c1sc3ccccc3[n+]1CCO)S2
assignedCategory: yes

Lookup: Check if EC50 falls below 1000 nM for Cc1ccc(C2(c3ccc(C)cc3)CC2C(=O)Nc2ccc([N+](=O)[O-])cc2O)cc1 (centres undefined) .
Found: no
